- System: intestinal alkaline phosphatase [Mus musculus]
- assayNotes: mouse intestinal phosphatase enzyme activation – biochemical, luminescence, single concentration, confirmation (AID 434970)
- experimentalContext: purified mouse IAP, CDP-Star luminescence, 30 min, at 10 µM; hits give low values
The campaign covered roughly 11,000 compounds. About 310 (2.8%) were called active. For the sample, actives were picked, then their nearest neighbours and some compounds at random.
resultType: activity change, negative = activation (%)
Reply numerically in %, unit not repeated.

Which activity change, negative = activation value is on record for O=C(Nc1cc(Cl)cc(Cl)c1)C1CCC(=O)N1Cc1ccccc1Cl (centres undefined) ?
-70.5

Which activity change, negative = activation value is on record for O=C(CSc1ncccn1)NCc1ccccc1 ?
-2

Which activity change, negative = activation value is on record for C[C@H](CO)N1C[C@H](C)[C@@H](CN(C)S(=O)(=O)c2ccccc2)Oc2ccc(NC(=O)Nc3ccc4c(c3)OCO4)cc2C1=O ?
-94.6

Which activity change, negative = activation value is on record for Cc1c(Cl)cccc1NC(=S)NCCC(C)C ?
-19.2

Which activity change, negative = activation value is on record for Cc1cc(NC(=O)c2ccc(C)s2)n(-c2ccccc2)n1 ?
-0.8

Which activity change, negative = activation value is on record for CCOCCCNC(=O)C(C)NS(=O)(=O)c1ccc(C)cc1 (centres undefined) ?
9.65

Which activity change, negative = activation value is on record for COc1ccc(S(=O)(=O)N(C)C[C@H]2Oc3ccc(NC(=O)Nc4ccc5c(c4)OCO5)cc3C(=O)N([C@H](C)CO)C[C@@H]2C)cc1 ?
-86.1

Which activity change, negative = activation value is on record for COC(=O)c1ccc(Nc2cc(C)nc3ncnn23)cc1 ?
-3.5

Which activity change, negative = activation value is on record for CCOC(=O)CN1C(=O)/C(=C2\SC(=S)N(NC(=O)c3cccnc3)C2=O)c2ccccc21 ?
52.8

Which activity change, negative = activation value is on record for COC(=O)c1ccc(CC(=O)c2c(C)cc(O)cc2O)o1 ?
12.3

Which activity change, negative = activation value is on record for COc1cc(NC(=O)NCC2CCN(Cc3ccc(C)cc3)CC2)cc(OC)c1OC ?
-88.3

Which activity change, negative = activation value is on record for COc1ccccc1NC(=S)NCCC(c1ccccc1)c1ccccc1 ?
-38.9

Which activity change, negative = activation value is on record for Cc1oc(-c2cccs2)nc1CSCC(=O)NC1CC1 ?
10.8

Which activity change, negative = activation value is on record for Cc1ccc(Cl)cc1NC(=S)NCCCSC1CCCCC1 ?
-28.8

Which activity change, negative = activation value is on record for N#Cc1nc(COc2ccc(Cl)cc2)oc1N1CCCCCC1 ?
3.6

Which activity change, negative = activation value is on record for CCCCc1ccc(CC(=O)O)cc1 ?
9.3

Which activity change, negative = activation value is on record for CCn1c(SCC(=O)Nc2nccs2)nnc1-c1cc2cccc(OC)c2o1 ?
11.9

Which activity change, negative = activation value is on record for COc1ccc(Cl)cc1NC(=S)NCCSc1ccc(C)cc1 ?
-42.5

Which activity change, negative = activation value is on record for COc1ccc(NC(=O)N(C)C[C@H]2Oc3ccc(NC(=O)Nc4ccc(C(F)(F)F)cc4)cc3C(=O)N([C@H](C)CO)C[C@@H]2C)cc1 ?
-75.5

Which activity change, negative = activation value is on record for CC(=O)c1c(C)[nH]c(C(=O)N2CCN(c3cc(Cl)ccc3C)CC2)c1C ?
-13.5

Which activity change, negative = activation value is on record for COc1cc(-c2noc(CCC(N)=O)n2)cc(OC)c1OC ?
11.6

Which activity change, negative = activation value is on record for Cc1ccc(-c2cc(-c3ccccc3)c3c(N)c(S(C)(=O)=O)sc3n2)cc1 ?
3.45

Which activity change, negative = activation value is on record for Cc1ccc(NCc2nnc(SCC(=O)N3CCCc4ccccc43)o2)c(C)c1 ?
-2.3

Which activity change, negative = activation value is on record for N/C(COc1cccc(Cl)c1)=N\NS(=O)(=O)c1ccccc1 ?
12.6

Which activity change, negative = activation value is on record for CCOc1ccccc1N(CC(=O)NC1CCCCC1)S(C)(=O)=O ?
2.85

Which activity change, negative = activation value is on record for COc1ccc(S(=O)(=O)N(C)C[C@H]2Oc3ccc(NC(=O)Nc4ccccc4)cc3C(=O)N([C@H](C)CO)C[C@@H]2C)cc1 ?
-115

Which activity change, negative = activation value is on record for Clc1ccc2nc(C3CCN(Cc4nnnn4C4CCCCC4)CC3)[nH]c2c1 ?
-14.6

Which activity change, negative = activation value is on record for OC(c1cccc(OCc2ccccc2)c1)c1nnc(-c2ccccc2)o1 (centres undefined) ?
-3.4

Which activity change, negative = activation value is on record for C#CCOCCOCCOCCNc1nc(N2CCN(C(=O)CCCCCCCCCCNC(=O)[C@H](CCCN=C(N)N)n3cc(C[C@@H](C)CC)nn3)CC2)nc(N2CCN(C(=O)CCCCCCCCCCNC(=O)[C@@H]([C@H](C)CC)n3cc(CCCCCN)nn3)CC2)n1 ?
-519

Which activity change, negative = activation value is on record for CCOC(=O)c1c(N)sc(C(O)(C(F)(F)F)C(F)(F)F)c1-c1ccccc1 ?
-6.55

Which activity change, negative = activation value is on record for COc1ccc(NC(=O)Nc2ccc3c(c2)C(=O)N([C@H](C)CO)C[C@H](C)[C@@H](CN(C)S(=O)(=O)c2ccccc2)O3)cc1 ?
-97.7

Which activity change, negative = activation value is on record for C#CCOCCOCCOCCNc1nc(N2CCN(C(=O)CCCCCCCCCCNC(=O)[C@H]([C@@H](C)CC)n3cc(CCCCN=C(N)N)nn3)CC2)nc(N2CCN(C(=O)CCCCCCCCCCNC(=O)[C@H](CCCCN)n3cc(C[C@@H](C)CC)nn3)CC2)n1 ?
-758

Which activity change, negative = activation value is on record for COc1cc(NC(=O)NCC2CCN(Cc3ccccc3C)CC2)cc(OC)c1OC ?
-190

Which activity change, negative = activation value is on record for COc1cc(NC(=O)NCC2CCN(Cc3ccccc3Cl)CC2)cc(OC)c1OC ?
-148

Which activity change, negative = activation value is on record for C[C@H](CO)N1C[C@H](C)[C@@H](CN(C)S(=O)(=O)c2ccc(F)cc2)Oc2ccc(NC(=O)Nc3ccccc3)cc2C1=O ?
-91.2

Which activity change, negative = activation value is on record for Cc1ccccc1NC(=S)NCCC(c1ccccc1)c1ccccc1 ?
-96

Which activity change, negative = activation value is on record for O=C(N1CCOCC1)C1(c2ccccc2)CCCCC1 ?
9.95

Which activity change, negative = activation value is on record for CCN(C1CCCCC1)S(=O)(=O)c1cc(C)ccc1OC ?
-4.35

Which activity change, negative = activation value is on record for S=C(NCCc1ccc(Cl)cc1)Nc1ccc(Cl)cc1Cl ?
-36.1
